Each entry below carries its reported EC50.
target: T1, Human VEGFA165 (human, UniProt P15692-4 27-191); test: ELISA, VEGFA coated 0.3 µg/mL, anti-His detection
T1 construct: treated as the same molecule; also called antigen VEGFA
T1 sequence (P15692 other isoform, or with tags, fused parts or gaps limits assumed): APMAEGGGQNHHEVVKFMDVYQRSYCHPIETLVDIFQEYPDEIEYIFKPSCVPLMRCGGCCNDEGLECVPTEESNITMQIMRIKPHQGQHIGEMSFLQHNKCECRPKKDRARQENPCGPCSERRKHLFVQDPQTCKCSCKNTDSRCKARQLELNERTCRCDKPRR
Please respond with the number in nM and leave the unit unwritten.

V43 (VHH, Purified with C-terminal GGGGS-6×His) VHH: QLQLVESGGGSVQPGGSLRLSCEVSGRTFTSYTMGWFRQAPGKEREFVVAISKGGYKYDSVSLEARFTISKDNTKNTVYLQMNSLKPEDTAVYYCAGTRAYGSSRLRLANTYEYWGQGTQVTVSS; 0.53
V33 (VHH, Purified with C-terminal GGGGS-6×His) VHH: QLQLVESGGGSVQPGGSLRLSCEVSGRTFSSYTMGWFRQAPGKEREFVVAISKGGYKYDSVSLEARFTISKDNTKNTVYLQMNSLKPEDTAVYYCAATRAYGSSRLRLAKTYEYWGQGTQVTVSS; 0.64
V15 (VHH, Purified with C-terminal GGGGS-6×His; also called candidate antibody V15) VHH: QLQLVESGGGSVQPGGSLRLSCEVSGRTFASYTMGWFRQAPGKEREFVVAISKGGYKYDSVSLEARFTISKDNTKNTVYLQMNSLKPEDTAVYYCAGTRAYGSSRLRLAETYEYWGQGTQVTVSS; 0.89

Let's switch to this binder now.
Request the reported EC50 associated with V40 (VHH, Purified with C-terminal GGGGS-6×His) VHH: QLQLVESGGGSVQPGGSLRLSCEVSGRTFTSYTMGWFRQAPGKEREFVVAISKGGYKYNAVSLEARFTISKDNTKNTVYLQMNSLKPEDTAVYYCAGTRAYGSSRLRLAKTYEYWGQGTQVTVSS
0.84
